Quick list: growth per entry.
System: CAKI-1 renal
experimental protocol: NCI-60 one-dose screen, 48 h (100 = growth as untreated, 0 = no growth, -100 = all killed)
recorded conditions: 10 µM
About 83,000 compounds went through this panel and 20% of them were active in at least one assay; those are over-represented in the sample as a whole. Active and inactive are the calls of the source. How the source made its calls: active means growth percent below 10; inactive means the rest.
experimental endpoint: growth

compound: O=[P@@]1(c2ccccc2)O[C@H](COCc2ccccc2)[C@@H](OCc2ccccc2)[C@H](OCc2ccccc2)[C@H]1O
value: 72.8% (inactive)
//
compound: COc1ccc(-c2nc(-c3nc4ccc(Cl)cc4[nH]3)c3ccccn23)cc1
value: -13% (active)
//
compound: COc1ccc(C(=O)/C=C/c2cc(-c3cc(OC)c(OC)c(OC)c3)n[nH]2)cc1
value: 4.76% (active)
//
compound: CN(C)CCCn1c(=O)c2ccccc2c2cnc3[nH]ccc3c21
value: 22.5% (inactive)
//
compound: COc1cc2c(cc1OC)N(CCO)C1=C(C(=O)OC1)C2c1ccc(Cl)c(Cl)c1 (stereo not drawn)
value: 107% (inactive)
//
compound: Cc1cc(C)c2c(n1)sc1c(Nc3ccc(Cl)cc3)ncnc12
value: 12.1% (inactive)
//
compound: O=C(NN1C(=O)CSC1c1ccc(Cl)cc1)c1cccnc1 (stereo not drawn)
value: 98.2% (inactive)
//
compound: COc1ccc(-c2nn(-c3cccc(NC(=O)c4ccc5c(c4)OCCO5)c3)cc2-c2ccncc2)cc1Cl
value: 15% (inactive)
//
compound: Cc1[nH]nc2c1C(c1cnn(C)c1)C(C#N)=C(N)O2 (stereo not drawn)
value: 102% (inactive)
//
compound: Nc1c(C(=O)Nc2cccc3ccccc23)sc2nc3c(cc12)C(=O)CCC3
value: 23.2% (inactive)
//
compound: FC(F)(F)c1ccc(-c2cnc(-n3cc(COCCN4CCCCC4)nn3)nc2NC2CCCCCC2)cc1
value: 46.6% (inactive)
//
compound: Clc1ccc(Sc2nc(NC3CC3)nc(Sc3ccc(Cl)cc3)n2)cc1
value: 51.9% (inactive)
//
compound: O=S(=O)(Nc1ccccn1)c1ccc(N=Nc2ccc(O)c3ncccc23)cc1
value: -4.15% (active)

The values you see were collected from PubChem BioAssay (NCI).
